Tested on: T19 cells
procedure_text: cells
Format: cell-based, Chinese hamster
condition_notes: read-out: LD50 (50% lethal dose), clonal survival; t19 cells
measured_attribute: pIC50
Quick note: pIC50 values are minus log10 of concentrations in mol/L.

Request: Which measured pIC50 value corresponds to COc1cc2c(c(OC)c1OC)-c1ccc(OC)c(=O)cc1[C@@H](NC(C)=O)CC2 ?
Response: 5.17

----------
Tested on: T19 cells
procedure_text: ODC (ornithine decarboxylase activity) assay of drug resistance, multidrug resistant T19 cells
Format: cell-based, Chinese hamster
condition_notes: Cricetulus griseus, 48 h, read-out: IC50 (ODC assay) T19
measured_attribute: pIC50
Quick note: pIC50 values are minus log10 of concentrations in mol/L.

Request: Which measured pIC50 value corresponds to COc1cc([C@@H]2c3cc4c(cc3[C@@H](O[C@@H]3O[C@@H]5CO[C@@H](C)O[C@H]5[C@H](O)[C@H]3O)[C@H]3COC(=O)[C@H]23)OCO4)cc(OC)c1O [Etoposide] ?
Response: 5.38

----------
Tested on: AA8 cells
procedure_text: ODC (ornithine decarboxylase activity) assay of cellular drug sensitivity, wild type AA8 cells
Assay type: cell-based, Chinese hamster
condition_notes: Cricetulus griseus, CHO-AA8, 48 h, read-out: IC50 (ODC assay) AA8
measured_attribute: pIC50
Quick note: pIC50 values are minus log10 of concentrations in mol/L.

Request: Which measured pIC50 value corresponds to COc1cc([C@@H]2c3cc4c(cc3[C@@H](O[C@@H]3O[C@@H]5CO[C@@H](C)O[C@H]5[C@H](O)[C@H]3O)[C@H]3COC(=O)[C@H]23)OCO4)cc(OC)c1O [Etoposide] ?
Response: 6.44

----------
Test system: T19 cells
procedure_text: ODC (ornithine decarboxylase activity) assay of drug resistance, multidrug resistant T19 cells
Format: cell-based, Chinese hamster
condition_notes: incubation time 48 hr; T19/AA8 ratio of IC50
For each of the compounds below, state its Resistance (-fold), ODC assay, T19 versus AA8.

Request: Which measured Resistance (-fold), ODC assay, T19 versus AA8 value corresponds to COc1cccc2c1C(=O)c1c(O)c3c(c(O)c1C2=O)C[C@@](O)(C(C)=O)C[C@@H]3O[C@H]1C[C@H](N)[C@H](O)[C@H](C)O1 [Daunorubicin] ?
Response: 63.0 -fold

Request: Which measured Resistance (-fold), ODC assay, T19 versus AA8 value corresponds to COc1ccc(OC)c(Cc2cnc3nc(N)nc(N)c3c2C)c1 [Piritrexim] ?
Response: 22.0 -fold

Request: Which measured Resistance (-fold), ODC assay, T19 versus AA8 value corresponds to COc1cc(NCc2ccc3nc(N)nc(N)c3c2C)cc(OC)c1OC [Trimetrexate] ?
Response: 25.0 -fold

Request: Which measured Resistance (-fold), ODC assay, T19 versus AA8 value corresponds to COc1cccc2c1C(=O)c1c(O)c3c(c(O)c1C2=O)C[C@@](O)(C(=O)CO)C[C@@H]3O[C@H]1C[C@H](N)[C@H](O)[C@H](C)O1 [Doxorubicin] ?
Response: 65.0 -fold

Request: Which measured Resistance (-fold), ODC assay, T19 versus AA8 value corresponds to COc1cc([C@@H]2c3cc4c(cc3[C@@H](O[C@@H]3O[C@@H]5CO[C@@H](C)O[C@H]5[C@H](O)[C@H]3O)[C@H]3COC(=O)[C@H]23)OCO4)cc(OC)c1O [Etoposide] ?
Response: 11.4 -fold

Request: Which measured Resistance (-fold), ODC assay, T19 versus AA8 value corresponds to COc1ccc(C[C@H](N)C(=O)N[C@H]2[C@@H](O)[C@H](n3cnc4c(N(C)C)ncnc43)O[C@@H]2CO)cc1 [Puromycin] ?
Response: 30.0 -fold

Request: Which measured Resistance (-fold), ODC assay, T19 versus AA8 value corresponds to CN(Cc1cnc2nc(N)nc(N)c2n1)c1ccc(C(=O)N[C@@H](CCC(=O)O)C(=O)O)cc1 [Methotrexate] ?
Response: 1.1 -fold

Request: Which measured Resistance (-fold), ODC assay, T19 versus AA8 value corresponds to Cc1nc(N)nc(N)c1-c1ccc(Cl)c(Cl)c1 [Metoprine] ?
Response: 3.9 -fold
